target under test: d-enCas12a-Ultra (Acidaminococcus sp., UniProt U2UMQ6 1-1307, E174R;S542R;K548R;M537R;F870L;D908A;E993A;D1235A)
procedure text: Spec-seq (native PAGE EMSA with sequencing of bound and unbound); 25 mM Tris-HCl pH 7.4, 150 mM KCl, 5 mM MgCl2, 10% glycerol, 1 mM DTT, 40 ng/uL salmon sperm DNA; 400 nM Cas12a, 480 nM crRNA, 50 nM library, 37 C 1 h; native PAGE at room temperature; high values mean tight binding;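 also: relative affinity from the bound to unbound sequence frequency ratio in Spec-seq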
experimental setup: protein: recombinant
Examples of binders with documented binding signal follow.

Record excerpt, results attached:
TACG (dsDNA) DNA 1: GCTATCTAGTGCTCAGTACGCACTGTACGAGGAAACTTCTGGCAGGACCAGGTCATGAGATCGGAAGAGCACACGTCTGAACTCCAGTCA DNA 2: TGACTGGAGTTCAGACGTGTGCTCTTCCGATCTCATGACCTGGTCCTGCCAGAAGTTTCCTCGTACAGTGCGTACTGAGCACTAGATAGC RNA: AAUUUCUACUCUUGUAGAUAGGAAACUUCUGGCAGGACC :: -0.852 lnKA
CCGG (dsDNA) DNA 1: GCTATCTAGTGCTCAGTACGCACTGCCGGAGGAAACTTCTGGCAGGACCAGGTCATGAGATCGGAAGAGCACACGTCTGAACTCCAGTCA DNA 2: TGACTGGAGTTCAGACGTGTGCTCTTCCGATCTCATGACCTGGTCCTGCCAGAAGTTTCCTCCGGCAGTGCGTACTGAGCACTAGATAGC RNA: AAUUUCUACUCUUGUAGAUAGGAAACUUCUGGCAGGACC :: -3.44 lnKA

// field: binding signal; key: CAGC (dsDNA) DNA 1: GCTATCTAGTGCTCAGTACGCACTGCAGCAGGAAACTTCTGGCAGGACCAGGTCATGAGATCGGAAGAGCACACGTCTGAACTCCAGTCA DNA 2: TGACTGGAGTTCAGACGTGTGCTCTTCCGATCTCATGACCTGGTCCTGCCAGAAGTTTCCTGCTGCAGTGCGTACTGAGCACTAGATAGC RNA: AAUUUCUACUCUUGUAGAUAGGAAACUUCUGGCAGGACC ; value = -3.45 lnKA
